For each record, write down the corresponding mass density.
Settings: 283.15 K; 101.33 kPa; Liquid; Vibrating tube method
Give bare numbers, in kg/m3.

List the reported mass density of each molecule below.
1. CCn1cc[n+](C)c1.O=S(=O)([N-]S(=O)(=O)C(F)(F)F)C(F)(F)F
2. CCCC[n+]1ccn(C)c1.O=S(=O)([O-])C(F)(F)C(F)C(F)(F)F (centres undefined)
3. CCCCn1cc[n+](C)c1.O=S(=O)([O-])C(F)(F)C(F)(F)OC(F)C(F)(F)F (centres undefined)
4. CCCC[n+]1cccc(C)c1.O=S(=O)([N-]S(=O)(=O)C(F)(F)F)C(F)(F)F
5. CCC[n+]1cccc(C)c1.O=S(=O)([N-]S(=O)(=O)C(F)(F)F)C(F)(F)F
6. CCn1cc[n+](C)c1.O=S(=O)([N-]S(=O)(=O)C(F)(F)C(F)(F)F)C(F)(F)C(F)(F)F

1. 1534
2. 1422
3. 1464
4. 1428
5. 1460
6. 1608

List the reported mass density of each molecule below.
1. CCCn1cc[n+](C)c1C.O=S(=O)([C-](S(=O)(=O)C(F)(F)F)S(=O)(=O)C(F)(F)F)C(F)(F)F
2. CCCCn1cc[n+](C)c1.O=S(=O)([O-])C(F)(F)C(F)OC(F)(F)C(F)(F)F (centres undefined)
3. CCCCn1cc[n+](C)c1.O=S(=O)([O-])C(F)(F)C(F)OC(F)(F)F (centres undefined)

1612
1439
1409
